# system.name: KIT wt (Homo sapiens)
# Sequence (P10721 546-937 limits assumed): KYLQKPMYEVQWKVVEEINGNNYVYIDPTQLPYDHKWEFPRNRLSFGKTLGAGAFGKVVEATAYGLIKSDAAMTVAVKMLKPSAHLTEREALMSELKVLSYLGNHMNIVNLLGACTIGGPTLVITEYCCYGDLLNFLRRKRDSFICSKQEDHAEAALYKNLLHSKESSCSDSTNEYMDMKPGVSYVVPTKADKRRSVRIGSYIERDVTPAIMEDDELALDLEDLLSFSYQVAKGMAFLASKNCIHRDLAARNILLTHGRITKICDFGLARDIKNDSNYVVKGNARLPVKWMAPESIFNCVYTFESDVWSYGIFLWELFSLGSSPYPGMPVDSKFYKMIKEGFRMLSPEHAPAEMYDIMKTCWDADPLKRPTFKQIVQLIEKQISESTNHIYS
# assay.text: KIT auto-phosphorylation in transformed BaF3 cells
# Format: cell-based
# condition.summary: 2h, read-out: EC50 pY719 auto-phosphorylation
test.readout: EC50 (µM)
The response must be a number in µM with no trailing unit.

Task item: Recorded EC50 for COc1cc(C(=O)NCC(=O)Nc2ccc3c(/C=C/c4ccccn4)n[nH]c3c2)cc(OC)c1OC , please?
Reply: 8.2

---

# system.name: KIT D816V (Homo sapiens, UniProt P10721, D816V)
# Sequence (P10721 26-976 D816V): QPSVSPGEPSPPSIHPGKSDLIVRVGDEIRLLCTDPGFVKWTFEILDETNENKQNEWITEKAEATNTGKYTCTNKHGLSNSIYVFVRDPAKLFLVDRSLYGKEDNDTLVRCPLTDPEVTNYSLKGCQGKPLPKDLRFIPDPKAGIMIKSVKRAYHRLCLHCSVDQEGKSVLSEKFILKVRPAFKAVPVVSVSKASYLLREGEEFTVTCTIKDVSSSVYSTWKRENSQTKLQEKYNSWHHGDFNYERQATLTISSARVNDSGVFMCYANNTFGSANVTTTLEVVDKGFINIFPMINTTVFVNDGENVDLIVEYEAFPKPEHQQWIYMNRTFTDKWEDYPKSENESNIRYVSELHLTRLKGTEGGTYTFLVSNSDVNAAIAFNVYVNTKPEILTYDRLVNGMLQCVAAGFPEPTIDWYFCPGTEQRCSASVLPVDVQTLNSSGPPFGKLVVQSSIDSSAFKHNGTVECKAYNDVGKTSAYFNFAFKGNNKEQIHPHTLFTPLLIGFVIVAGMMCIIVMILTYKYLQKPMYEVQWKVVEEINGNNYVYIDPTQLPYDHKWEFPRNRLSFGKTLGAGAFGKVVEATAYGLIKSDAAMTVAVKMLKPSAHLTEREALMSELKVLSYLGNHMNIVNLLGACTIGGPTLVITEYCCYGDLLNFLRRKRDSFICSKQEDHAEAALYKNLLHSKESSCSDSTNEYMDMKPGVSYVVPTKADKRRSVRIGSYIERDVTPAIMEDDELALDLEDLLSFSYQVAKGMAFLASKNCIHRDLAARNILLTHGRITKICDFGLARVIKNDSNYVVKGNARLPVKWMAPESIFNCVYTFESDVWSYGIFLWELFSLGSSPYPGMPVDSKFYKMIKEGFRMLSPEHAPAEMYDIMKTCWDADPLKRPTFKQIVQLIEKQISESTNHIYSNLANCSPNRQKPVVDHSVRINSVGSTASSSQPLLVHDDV
# assay.text: KIT auto-phosphorylation in transformed BaF3 cells
# condition.summary: EC50 pY719 auto-phosphorylation, 2h
test.readout: EC50

Task item: Recorded EC50 for COc1cc(C(=O)NCC(=O)Nc2ccc3c(/C=C/c4ccccn4)n[nH]c3c2)cc(OC)c1OC , please?
Reply: > 10 µM

---

# system.name: KIT V559D/V654A (Homo sapiens, UniProt P10721, V559D/V654A)
# Sequence (P10721 546-976 V559D/V654A): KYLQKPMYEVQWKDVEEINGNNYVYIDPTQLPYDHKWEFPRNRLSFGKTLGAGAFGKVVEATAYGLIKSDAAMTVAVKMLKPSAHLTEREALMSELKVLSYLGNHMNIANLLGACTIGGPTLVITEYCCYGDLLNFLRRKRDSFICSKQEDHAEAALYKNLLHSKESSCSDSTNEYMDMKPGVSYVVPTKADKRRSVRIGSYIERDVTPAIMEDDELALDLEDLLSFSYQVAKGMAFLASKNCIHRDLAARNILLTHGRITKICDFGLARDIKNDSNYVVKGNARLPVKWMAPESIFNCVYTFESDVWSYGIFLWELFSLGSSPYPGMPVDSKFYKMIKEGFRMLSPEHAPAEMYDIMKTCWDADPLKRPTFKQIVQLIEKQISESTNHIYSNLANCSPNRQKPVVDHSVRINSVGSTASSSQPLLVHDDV
# assay.text: KIT auto-phosphorylation in transformed BaF3 cells
# condition.summary: EC50 pY703 auto-phosphorylation, 2h
test.readout: EC50 (µM)
The response must be a number in µM with no trailing unit.

Task item: Recorded EC50 for COc1cc(C(=O)NCC(=O)Nc2ccc3c(/C=C/c4ccccn4)n[nH]c3c2)cc(OC)c1OC [CHMFL-KIT-031] , please?
Reply: 5.6
